- assay.explanation: RP, Waters CORTECS UPLC C18, 100 × 2.1 mm, 1.6 µm, 40 °C, 0.4 mL/min, estimated dead time 0.55 min; A: water + 0.1% formic acid, pH 3; B: acetonitrile + 0.1% formic acid, pH 3; gradient (min/%B) 0/5 1.12/5 6.41/99.5 10.01/99.5
- experimental.parameters: stereoisomer not certain
Could you please report measured LC retention time for the items listed next?
Write the number in min without appending the unit.

q: Look up LC retention time for this compound: Cc1nn(C)c(Oc2ccccc2)c1C=NOCc1ccc(C(=O)OC(C)(C)C)cc1 [Fenpyroximate]
a: 6.25

q: Please give the result for COC(=O)Nc1cccc(OC(=O)Nc2cccc(C)c2)c1 too.
a: 4.71

q: Further, for NC(Cc1cc(I)c(Oc2cc(I)c(O)c(I)c2)c(I)c1)C(=O)O (centres undefined) ?
a: 3.97

q: Same read-out for Cc1cc(C)nc(NC(=O)NS(=O)(=O)c2ccccc2C(=O)OC2COC2)n1 ?
a: 3.85

----------
For each of the compounds below, state its LC retention time.
- assay.explanation: RP, Waters CORTECS UPLC C18, 100 × 2.1 mm, 1.6 µm, 40 °C, 0.4 mL/min, estimated dead time 0.55 min; A: water + 0.1% formic acid, pH 3; B: acetonitrile + 0.1% formic acid, pH 3; gradient (min/%B) 0/5 1.12/5 6.41/99.5 10.01/99.5
- experimental.parameters: stereoisomer not certain
The response must be a number in min with no trailing unit.

q: // query LC retention time value for entry CCCCCCCCCCCC[n+]1cccc(S(=O)(=O)[O-])c1
a: 4.89

q: Field entry: CNC(=O)ON=C(CSC)C(C)(C)C
a: 4.76

q: Queued: CN1COCN(Cc2cnc(Cl)s2)C1=N[N+](=O)[O-]
a: 2.87

q: Next entry: CC(CCC(=O)O)C1CCC2C3C(=O)CC4CC(O)CCC4(C)C3CCC12C (centres undefined)
a: 4.8

q: Entry to check: COC(=O)Cc1c[nH]c2ccccc12 [INDOLE-3-METHYL ACETATE]
a: 4.14

q: Proceed to CC1(C)COC(=O)C1O (centres undefined)
a: 3.31

q: Same again, this time with CNC(=O)c1cc(Cl)cc(C)c1NC(=O)c1cc(Br)nn1-c1ncccc1Cl
a: 4.63

q: Lookup CC(=O)NCCCC(=O)O [4-ACETAMIDOBUTANOATE]
a: 0.817

q: Okay, and CS(=O)(=O)c1cc(C(F)(F)F)ccc1C(=O)c1cnoc1C1CC1 ?
a: 4.85

----------
- assay.explanation: RP, Waters CORTECS UPLC C18, 100 × 2.1 mm, 1.6 µm, 40 °C, 0.4 mL/min, estimated dead time 0.55 min; A: water + 0.1% formic acid, pH 3; B: acetonitrile + 0.1% formic acid, pH 3; gradient (min/%B) 0/5 1.12/5 6.41/99.5 10.01/99.5
- experimental.parameters: stereoisomer not certain
# label = fulfilled if LC retention time < 2 min else not fulfilled

q: Field: below-cutoff. Rule: recorded LC retention time strictly less than 2 min. Subject: Cc1cc(C2CC2)nc(Nc2ccccc2)n1
a: not fulfilled

q: Follow-up item: CCCOCC(=Nc1ccc(Cl)cc1C(F)(F)F)n1ccnc1
a: not fulfilled

q: What would you report for CC(CCC(=O)O)C1CCC2C3CCC4CC(O)CCC4(C)C3CC(O)C12C (centres undefined) ?
a: not fulfilled

q: Also, CCC(=O)OC(CC(=O)[O-])C[N+](C)(C)C (centres undefined) please.
a: fulfilled

q: How about CC1=NNC(=O)N(N=Cc2cccnc2)C1 ?
a: fulfilled

q: Can you check N#CCNC(=O)c1cnccc1C(F)(F)F next?
a: not fulfilled

q: Same again, this time with O=Cc1ccc(O)cc1 [4-HYDROXYBENZALDEHYDE]
a: not fulfilled

q: Proceed to CCC(CC)Nc1c([N+](=O)[O-])cc(C)c(C)c1[N+](=O)[O-]
a: not fulfilled

q: Consider next the compound CNC(=N[N+](=O)[O-])NCC1CCOC1 (centres undefined) in the same way.
a: not fulfilled

# credit: the RepoRT retention time repository
